Molecular target: Gamma-aminobutyric acid receptor subunit gamma-1 (Rattus norvegicus, UniProt P23574)
Sequence (P23574 whole entry): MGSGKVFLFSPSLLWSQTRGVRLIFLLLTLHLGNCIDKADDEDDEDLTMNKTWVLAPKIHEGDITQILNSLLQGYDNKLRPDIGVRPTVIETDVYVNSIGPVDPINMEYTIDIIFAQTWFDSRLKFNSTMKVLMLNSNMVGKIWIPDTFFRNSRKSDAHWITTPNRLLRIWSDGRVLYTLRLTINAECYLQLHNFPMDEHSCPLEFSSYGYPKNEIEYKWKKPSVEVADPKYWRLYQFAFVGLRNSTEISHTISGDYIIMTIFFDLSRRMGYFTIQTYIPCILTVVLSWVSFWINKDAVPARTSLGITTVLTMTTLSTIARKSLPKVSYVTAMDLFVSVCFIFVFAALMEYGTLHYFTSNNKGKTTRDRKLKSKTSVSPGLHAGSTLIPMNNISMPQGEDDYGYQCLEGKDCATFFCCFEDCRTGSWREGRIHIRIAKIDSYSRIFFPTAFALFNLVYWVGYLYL
Experiment: Apparent affinity by displacement of preincubated [35S]TBPS from rat cortical homogenates at 60 nM

- Molecule Smiles: "CC(C)(C)C12COC(c3ccc(N=C=S)cc3)(OC1)OC2"
  Assay System: "Gamma-aminobutyric acid receptor subunit gamma-1 (Rattus norvegicus, UniProt P23574)"
  Measurement Unit: "nM"
  Kd: 72.2

----------
Target: GABA-A receptor; anion channel
Experiment: Apparent affinity by displacement of preincubated [35S]TBPS from rat cortical homogenates at 1200 nM
// values below are reported Kd

- Molecule Smiles: "CC(C)(C)C12COC(c3cccc(N=C=S)c3)(OC1)OC2"
  Measurement Unit: "nM"
  Kd: 51.8
- Molecule Smiles: "CC(C)(C)C12COC(c3ccccc3N=C=S)(OC1)OC2"
  Measurement Unit: "nM"
  Kd: 50.7

----------
Biological target: GABA-A receptor; anion channel
Experiment: Apparent affinity by displacement of preincubated [35S]TBPS from rat cortical homogenates at 2400 nM
pKd: −log10 of the molar value.
// values below are reported pKd
Quantity Measured: pKd

- Molecule Smiles: "CC(C)(C)C12COC(c3cccc(N=C=S)c3)(OC1)OC2"
  Measured Number: 7.13
- Molecule Smiles: "CC(C)(C)C12COC(c3ccccc3N=C=S)(OC1)OC2"
  Measured Number: 7.24

----------
Biological target: GABA-A receptor; anion channel
Experiment: Inhibition of [35S]-TBPS binding to rat cortical membranes after 60 minute pre-incubation with radioligand
Format: cell membranes, Membrane

- Molecule Smiles: "CC(C)(C)C12COC(c3cccc(N=C=S)c3)(OC1)OC2"
  Measurement Unit: "µM"
  IC50: 5.4
- Molecule Smiles: "CC(C)(C)C12COC(c3ccccc3N=C=S)(OC1)OC2"
  Measurement Unit: "µM"
  IC50: 7.5
- Molecule Smiles: "CC(C)(C)C12COC(c3ccc(N=C=S)cc3)(OC1)OC2"
  Measurement Unit: "µM"
  IC50: 0.09

----------
// values below are reported pKd
Biological target: GABA-A receptor; anion channel
Experiment: Apparent affinity by displacement of pre-incubated [35S]-TBPS from rat cortical homogenates at 600 nM
pKd: −log10 of the molar value.

- Molecule Smiles: "CC(C)(C)C12COC(c3ccccc3N=C=S)(OC1)OC2"
  pKd: 7.24
- Molecule Smiles: "CC(C)(C)C12COC(c3cccc(N=C=S)c3)(OC1)OC2"
  pKd: 7.35

----------
// values below are reported pKd
Biological target: GABA-A receptor; anion channel
Test: Apparent affinity by displacement of pre-incubated [35S]-TBPS from rat cortical homogenates (control)
pKd: −log10 of the molar value.

- Molecule Smiles: "CC(C)(C)C12COC(c3cccc(N=C=S)c3)(OC1)OC2"
  Assay System: "GABA-A receptor; anion channel"
  pKd: 7.45
- Molecule Smiles: "CC(C)(C)C12COC(c3ccccc3N=C=S)(OC1)OC2"
  Assay System: "GABA-A receptor; anion channel"
  pKd: 7.33
- Molecule Smiles: "CC(C)(C)C12COC(c3ccc(N=C=S)cc3)(OC1)OC2"
  Assay System: "GABA-A receptor; anion channel"
  pKd: 7.33

----------
Biological target: GABA-A receptor; anion channel
Assay: Apparent affinity by displacement of preincubated [35S]-TBPS from rat cortical homogenates at 1500 nM
pKd: −log10 of the molar value.

- Molecule Smiles: "CC(C)(C)C12COC(c3ccccc3N=C=S)(OC1)OC2"
  Assay System: "GABA-A receptor; anion channel"
  pKd: 7.25
- Molecule Smiles: "CC(C)(C)C12COC(c3cccc(N=C=S)c3)(OC1)OC2"
  Assay System: "GABA-A receptor; anion channel"
  pKd: 7.25
